target: T1, human GPC3-His protein (human, UniProt P51654 25-559); assay: ELISA, coated human GPC3, antibody 0.01 nM;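 further: Plate-bound antigen coated at 1 µg/mL, antibody incubated 2 h at 37 °C, binding detected by HRP-conjugated secondary antibody with TMB substrate, read as absorbance at 450 nm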
T1 construct: Bought protein; also called human GPC3 protein; not shown: His tag
Consider the following binders; for each one, report its OD450 nm.
One number for each entry, in OD450.

Can you give me OD450 nm for all of these, one by one?
1. F1.153.1 human-murine chimeric antibody (antibody, human IgG1, kappa, V domains shown) VH: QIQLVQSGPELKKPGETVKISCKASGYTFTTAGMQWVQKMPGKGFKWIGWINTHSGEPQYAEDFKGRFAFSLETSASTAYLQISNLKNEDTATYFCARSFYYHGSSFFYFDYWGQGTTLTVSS VL: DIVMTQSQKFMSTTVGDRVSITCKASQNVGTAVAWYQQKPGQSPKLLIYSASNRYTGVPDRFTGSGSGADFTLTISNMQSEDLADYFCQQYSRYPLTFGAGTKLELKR
2. F1.136.7 human-murine chimeric antibody (antibody, human IgG1, kappa, V domains shown) VH: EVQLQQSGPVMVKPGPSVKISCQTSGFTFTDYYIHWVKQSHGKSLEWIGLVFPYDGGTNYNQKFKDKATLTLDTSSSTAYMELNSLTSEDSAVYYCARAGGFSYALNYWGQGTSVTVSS VL: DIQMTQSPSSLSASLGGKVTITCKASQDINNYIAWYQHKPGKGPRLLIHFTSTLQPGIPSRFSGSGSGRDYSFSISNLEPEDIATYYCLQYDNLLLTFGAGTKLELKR

1: 0.15; 2: 0.14
